System: UniProtKB Q14542
Sequence (Q14542 whole entry): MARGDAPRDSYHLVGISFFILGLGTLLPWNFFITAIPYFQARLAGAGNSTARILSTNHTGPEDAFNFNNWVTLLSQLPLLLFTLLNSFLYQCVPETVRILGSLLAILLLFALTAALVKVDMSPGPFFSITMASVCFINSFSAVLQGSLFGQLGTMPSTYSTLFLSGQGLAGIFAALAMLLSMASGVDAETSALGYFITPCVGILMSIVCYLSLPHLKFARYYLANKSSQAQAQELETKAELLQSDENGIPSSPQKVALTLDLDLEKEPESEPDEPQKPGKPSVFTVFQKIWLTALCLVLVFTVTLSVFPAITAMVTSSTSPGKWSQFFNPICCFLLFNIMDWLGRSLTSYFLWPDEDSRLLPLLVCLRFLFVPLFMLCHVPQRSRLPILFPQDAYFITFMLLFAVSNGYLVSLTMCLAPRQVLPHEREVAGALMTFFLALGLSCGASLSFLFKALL
Protocol Text: Inhibition of 3H-nucleoside influx by BAs in ENT2-expressing Xenopus oocytes
Type: cell-based
Design: expressed in transfected cells; host or cells: Xenopus laevis oocytes injected with in vitro-transcribed capped mRNA from pOX-hENT2
Setup Conditions: 3H-Ado 20 μM, sodium-free buffer; read-out: ENT2 IC50 (Ado uptake)
Let's look at some compounds and their measured IC50.
The reply should be a number in µM, with the unit left off.

Past entries and their recorded results:
• C[C@H](CCC(=O)NCCS(=O)(=O)O)[C@H]1CC[C@H]2[C@@H]3[C@@H](O)C[C@@H]4C[C@H](O)CC[C@]4(C)[C@H]3CC[C@]12C [TUDCA, tauroursodeoxycholic acid] = 4.9
• C[C@H](CCC(=O)O)[C@H]1CC[C@H]2[C@@H]3CC[C@@H]4C[C@H](O)CC[C@]4(C)[C@H]3CC[C@]12C [LCA] = 18.4
• C[C@H](CCC(=O)O)[C@H]1CC[C@H]2[C@@H]3[C@H](O)C[C@@H]4C[C@H](O)CC[C@]4(C)[C@H]3C[C@H](O)[C@]12C [CA, cholic acid] = 7.1

Query: For the record C[C@H](CCC(=O)O)[C@H]1CC[C@H]2[C@@H]3[C@H](O)C[C@@H]4C[C@H](O)CC[C@]4(C)[C@H]3CC[C@]12C [CDCA, chenodeoxycholic acid] , what value of IC50 is listed for UniProtKB Q14542?
Reply: 22.9

Query: Item C[C@H](CCC(=O)O)[C@H]1CC[C@H]2[C@@H]3CC[C@@H]4C[C@H](O)CC[C@]4(C)[C@H]3C[C@H](O)[C@]12C [DCA, deoxycholic acid] with UniProtKB Q14542 - IC50?
Reply: 0.9

Query: Under UniProtKB Q14542: IC50 value of C[C@H](CCC(=O)NCC(=O)O)[C@H]1CC[C@H]2[C@@H]3[C@H](O)C[C@@H]4C[C@H](O)CC[C@]4(C)[C@H]3C[C@H](O)[C@]12C [GCA, glycocholic acid] ?
Reply: 16.7

====

System: ENT3 (Homo sapiens)
Construct: plasma membrane–directed ENT3 with a truncated N-terminus (that harbors lysosomal targeting motif); expressed in transfected cells; host or cells: Xenopus laevis oocytes injected with in vitro-transcribed mRNA from pOX-Δ36hENT3
Sequence (Q9BZD2 with tags, fused parts or gaps): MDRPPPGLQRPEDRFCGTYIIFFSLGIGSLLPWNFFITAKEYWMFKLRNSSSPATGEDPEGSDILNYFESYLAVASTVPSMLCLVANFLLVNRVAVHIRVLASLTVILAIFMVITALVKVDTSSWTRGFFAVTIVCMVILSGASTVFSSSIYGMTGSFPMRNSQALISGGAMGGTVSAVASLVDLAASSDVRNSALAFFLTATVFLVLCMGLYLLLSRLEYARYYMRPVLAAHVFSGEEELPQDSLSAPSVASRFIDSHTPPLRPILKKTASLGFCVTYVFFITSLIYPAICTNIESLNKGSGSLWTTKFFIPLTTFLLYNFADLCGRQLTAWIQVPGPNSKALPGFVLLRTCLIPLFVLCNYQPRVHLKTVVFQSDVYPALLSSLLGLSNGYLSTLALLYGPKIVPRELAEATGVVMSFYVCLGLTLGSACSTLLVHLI
Protocol Text: Inhibition of 3H-nucleoside influx by BAs in ENT3-expressing Xenopus oocytes
Format: cell-based
Readout: pIC50
Scale: negative log10 of molar concentration, which is what pIC50 denotes.

Query: Return reported pIC50; argument: `C[C@H](CCC(=O)NCCS(=O)(=O)O)[C@H]1CC[C@H]2[C@@H]3[C@H](O)C[C@@H]4C[C@H](O)CC[C@]4(C)[C@H]3C[C@H](O)[C@]12C`
Reply: 4.28
